# assayTarget: Cytochrome P450 1A2 (Homo sapiens) (UniProt P05177)
# Sequence (P05177 whole entry, looked up): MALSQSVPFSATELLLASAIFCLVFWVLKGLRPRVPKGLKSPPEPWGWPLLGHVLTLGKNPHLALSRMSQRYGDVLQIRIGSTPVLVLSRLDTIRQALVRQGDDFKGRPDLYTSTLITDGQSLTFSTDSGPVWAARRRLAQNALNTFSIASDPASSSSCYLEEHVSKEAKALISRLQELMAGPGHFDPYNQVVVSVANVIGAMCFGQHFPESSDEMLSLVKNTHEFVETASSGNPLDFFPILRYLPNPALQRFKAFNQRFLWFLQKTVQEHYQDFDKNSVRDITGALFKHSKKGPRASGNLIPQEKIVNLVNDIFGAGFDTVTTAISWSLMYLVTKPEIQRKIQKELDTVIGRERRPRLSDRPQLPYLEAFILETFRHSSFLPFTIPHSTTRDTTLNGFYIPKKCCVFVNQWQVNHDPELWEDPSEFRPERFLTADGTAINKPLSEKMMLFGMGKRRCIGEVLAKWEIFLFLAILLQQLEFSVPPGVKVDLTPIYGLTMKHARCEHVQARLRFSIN
# testSummary: p450-cyp1a2 (AID 410);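 also: -100% = full effect of reference inhibitor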
# conditionsUsed: recombinant CYP1A2, luciferin-ME demethylation, luminescence; series mostly up to 11.4 µM
Inconclusive results are not listed. Active and inactive are the calls of the source. Calls follow the shape of the full dose curve.
observationType: activity change, negative = inhibition

Solved cases (5 shown):
compound	assayTarget	activity change, negative = inhibition
O=C(CN1C(=O)c2ccccc2C1=O)NC1(C(=O)O)CCCC1	Cytochrome P450 1A2 (Homo sapiens) (UniProt P05177)	-2.1% [at 2.29 µM] (inactive)
COc1cc(C2SCCCCCCCCCCSC(c3ccc(O)c(OC)c3)SCCCCCCCCCCS2)ccc1O (configuration not stated)	Cytochrome P450 1A2 (Homo sapiens) (UniProt P05177)	-6.9% [at 2.29 µM] (inactive)
C[C@]1(O)CC[C@H]2[C@H]3CC=C4N5CCN=C5CC[C@@]4(C)[C@H]3CC[C@@]21C	Cytochrome P450 1A2 (Homo sapiens) (UniProt P05177)	-12.8% [at 2.29 µM] (inactive)
Nc1ncnc2nc(N3CCN(CCO)CC3)[nH]c12	Cytochrome P450 1A2 (Homo sapiens) (UniProt P05177)	-1.2% [at 2.29 µM] (inactive)
O[C@H](C[C@@H]1CCCCN1)c1ccc2c(c1)oc1ccccc12	Cytochrome P450 1A2 (Homo sapiens) (UniProt P05177)	-10.4% [at 2.29 µM] (inactive)

Q. Please report the measured activity change, negative = inhibition for O=CN1CCN(C[C@H](O)CN2CCCCC2)CC1
A. -17.6% [at 2.29 µM] (inactive)

Q. Write down activity change, negative = inhibition measured for item CC(=O)O[C@H]1CC[C@@]2(C)[C@@H](CC[C@H]3[C@H]2CC(=O)[C@@]2(C)[C@@H]3C[C@H]3CC(C)=CC(=O)[C@H]32)C1
A. -9% [at 2.29 µM] (inactive)

Q. Give activity change, negative = inhibition for the following compound: O=C(O)[C@@H]1[C@H](C(=O)O)[C@H]2C(=O)C=C[C@H]1N2Cc1ccccc1
A. -3.9% [at 2.29 µM] (inactive)

Q. Supply recorded activity change, negative = inhibition for NCCNC(=S)S here.
A. -13.2% [at 2.29 µM] (inactive)

Q. Give reported activity change, negative = inhibition value for O=C(O)c1ccc(C(=O)c2ccccc2)c(C(=O)O)c1
A. 3.1% [at 2.29 µM] (inactive)

Q. Please list activity change, negative = inhibition recorded for the compound CN(CCO)Cc1ncccc1O
A. -10% [at 2.29 µM] (inactive)

Q. Consider the compound Nc1n[nH]c2ccccc12 and give its recorded activity change, negative = inhibition.
A. -9.1% [at 2.29 µM] (inactive)

---

# testSummary: NFAT Signaling Pathway (AID 444);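 also: carbachol stimulus at about its EC50 of 1 µM final; % is scaled to controls: 0 for no effect and ±100 for the full control effect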
# conditionsUsed: Jurkat NFAT-bla M1, carbachol, beta-lactamase ratio, 5 h; at 7.69 µM (top of the series) unless noted
Inconclusive results are not listed. Calls of active or inactive are those of the source. Calls follow the shape of the dose curve; as a rule, active = well fitted curve in either direction with a large enough effect (not every such curve was filed as active); inconclusive = small, poorly fitted or top-dose-only effect, or another doubt; inactive = flat fitted curve, though single readings scatter.
activity change, negative = inhibition: recorded values

Examples with answers:
molecule	assayResult
CCc1ccc(CCC(=O)O)nc1	-3.46% (inactive)
Cn1c(=O)c2[nH]c(CCNC(=O)c3ccccc3)nc2n(C)c1=O	10.4% (inactive)
CC1=C(\C=C/C(C)=C/C=C\C(C)=C\C(=O)Nc2ccc(O)cc2)C(C)(C)CCC1	-17.1% [at 38 µM] (inactive)
O=C(O)CSc1cc(-c2ccccc2)nc2ccccc12	10.2% (inactive)
CC(CC(=O)O)(CC(=O)O)C(=O)O	18.4% (inactive)
Cc1ccc(S(=O)(=O)N[C@H](C(=O)O)C(C)C)cc1	-0.0198% (inactive)
Oc1c(Br)cc(Br)cc1CN(Cc1cc(Br)cc(Br)c1O)C1CCCCC1	5.11% (inactive)
Oc1ccc([C@@H]2CNCCc3c2cc(O)c(O)c3Cl)cc1	1.42% [at 38 µM] (inactive)

Q. Hello, please tell me recorded activity change, negative = inhibition for this one: Cn1ncc2c(NCCc3ccccc3)nc(Cl)nc21
A. 2.58% (inactive)

Q. Supply measured activity change, negative = inhibition of OCCN(CO)CO in your reply.
A. 13.5% (inactive)

Q. Return reported activity change, negative = inhibition. Input molecule: CC(C)NC[C@@H](O)c1ccc(O)c2ncccc12
A. 14% (inactive)

Q. Fill in reported activity change, negative = inhibition for this entry: CCc1c(O)c2c(c(O)c1C(C)=O)C(=O)c1c(cc(O)c(C(=O)O)c1C(=O)O)C2=O
A. 15.1% (inactive)

---

# assayTarget: Glucocorticoid receptor (Homo sapiens) (UniProt P04150)
# Sequence (P04150 whole entry, looked up): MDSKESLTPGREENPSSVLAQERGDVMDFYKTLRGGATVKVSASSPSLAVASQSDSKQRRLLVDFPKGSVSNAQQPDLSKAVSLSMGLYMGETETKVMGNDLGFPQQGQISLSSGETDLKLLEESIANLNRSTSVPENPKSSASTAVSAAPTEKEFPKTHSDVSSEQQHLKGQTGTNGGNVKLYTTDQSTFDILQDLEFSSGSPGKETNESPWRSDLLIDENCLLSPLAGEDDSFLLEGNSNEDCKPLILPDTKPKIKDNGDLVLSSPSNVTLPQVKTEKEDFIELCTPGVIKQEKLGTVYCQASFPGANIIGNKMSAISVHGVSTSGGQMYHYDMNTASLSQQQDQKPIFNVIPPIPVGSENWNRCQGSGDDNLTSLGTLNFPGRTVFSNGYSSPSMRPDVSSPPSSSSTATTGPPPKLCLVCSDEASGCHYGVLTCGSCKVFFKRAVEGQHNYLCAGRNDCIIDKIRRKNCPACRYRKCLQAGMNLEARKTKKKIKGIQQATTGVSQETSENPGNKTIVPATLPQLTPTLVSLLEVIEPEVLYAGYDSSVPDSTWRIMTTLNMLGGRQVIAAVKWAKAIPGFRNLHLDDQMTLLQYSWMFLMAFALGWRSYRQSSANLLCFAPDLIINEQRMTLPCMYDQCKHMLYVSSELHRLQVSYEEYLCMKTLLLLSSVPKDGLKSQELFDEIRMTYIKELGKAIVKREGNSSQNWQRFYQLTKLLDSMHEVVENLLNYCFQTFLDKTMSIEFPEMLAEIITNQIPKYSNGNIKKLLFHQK
# testSummary: GR-EFC Redistribution (AID 451); also: potency is read from the fitted curve at half-maximal effect
# conditionsUsed: CHO-K1 GR-EFC translocation, beta-gal luminescence, 2 h
The source made the active and inactive calls. Calls follow the shape of the full dose curve.
observationType: Potency

Record excerpt, results attached:
molecule	Potency
CC(=O)[C@H]([C@@H](c1ccccc1)N1CCOCC1)N1CCOCC1	> 9.22 µM (inactive)
NC(=O)CS(=O)C[C@H](N)C(=O)O (stereo partly drawn)	> 9.22 µM (inactive)
O=C(O)Cc1cccc2c(=O)cc(-c3ccccc3)oc12	> 9.22 µM (inactive)
CN[C@@H](CC(C)C)C(=O)N[C@@H]1C(=O)N[C@H](CC(N)=O)C(=O)N[C@H]2C(=O)N[C@H]3C(=O)N[C@H](C(=O)N[C@H](C(=O)O)c4cc(O)cc(O)c4-c4cc3ccc4O)[C@H](O)c3ccc(c(Cl)c3)Oc3cc2cc(c3O[C@@H]2O[C@@H](CO)[C@@H](O)[C@@H](O)[C@H]2O[C@H]2C[C@](C)(N)[C@H](O)[C@H](C)O2)Oc2ccc(cc2Cl)[C@@H]1O	> 46 µM (inactive)
Cc1ccc(-[n+]2cc(=O)o[nH]2)cc1	> 9.22 µM (inactive)

Q. Indicate the recorded Potency value for this molecule: O=C(O)c1ccc(C(=O)c2ccccc2C(=O)O)cc1C(=O)O
A. > 9.22 µM (inactive)

Q. Using known records, supply Potency for CN(C)c1ccc(-c2nc(Nc3ccncc3)c3ccccc3n2)cc1
A. > 46 µM (inactive)

Q. Answer with the recorded Potency for the molecule listed here: CN(Cc1cccc2ccccc12)Cc1cccc2ccccc12
A. > 9.22 µM (inactive)

---

Examples of compounds with documented activity, negative = inhibition follow.
# testSummary: Stat Signaling Pathway (AID 446);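 also: ME-180 cervical cancer cells given 40 pM IL-6 alongside compound; SIE-controlled beta-lactamase reporter measured as 460/530 nm FRET emission ratio; % is scaled to controls: 0 for no effect and ±100 for the full control effect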
# conditionsUsed: ME-180 (cervical carcinoma) SIE beta-lactamase reporter, IL-6 stimulated, 5 h; at 7.69 µM (top of the series) unless noted
Results filed as inconclusive are left out. The source made the active and inactive calls. The call rests on the fitted dose curve; in most records, active means well fitted curve in either direction with a large enough effect (not every such curve was filed as active); inconclusive means small, poorly fitted or top-dose-only effect, or another doubt; inactive means flat fitted curve, though single readings scatter.

Study these solved cases before continuing.
compound	activity, negative = inhibition
CN(C)Cc1cc(C(C)(C)C)ccc1-c1ccc(C(C)(C)C)cc1CN(C)C	1.89% (inactive)
O=C(O)CS(=O)c1ccc2c3c(cccc13)C(=O)c1ccccc1-2 (configuration not stated)	1.69% (inactive)
N=C(N)S[C@H]1c2ccccc2-c2cc([N+](=O)[O-])ccc21	-2.76% (inactive)
c1ccc(B2OC[C@@H]3OB(c4ccccc4)O[C@H]([C@@H]4COB(c5ccccc5)O4)[C@@H]3O2)cc1	-6.35% (inactive)

Q. Give the measured activity, negative = inhibition for N[C@H](CCC(=O)NCS(=O)(=O)O)C(=O)O
A. -7.51% [at 38 µM] (inactive)

Q. Quick one: give measured activity, negative = inhibition for C=C1CCO[C@@]2([C@H](O)[C@@](C)(O)CO)NC(=O)[C@]1(O)NC2=O
A. 2.56% (inactive)

Q. Provide only the value of recorded activity, negative = inhibition for CC(C)=C[C@H]1[C@@H](COC(=O)c2ccccc2Cl)C1(C)C
A. -1.06% (inactive)

Q. Please indicate activity, negative = inhibition recorded for CC(=O)Nc1cc(CN2CCCCC2)c(O)c2ncccc12
A. 6.71% (inactive)

Q. Identify measured activity, negative = inhibition associated with O=C(O)C12CC3(C(=O)O)CC(C(=O)O)(CC(C(=O)O)(C1)C3=O)C2=O
A. 4.13% (inactive)

Q. Find the measured activity, negative = inhibition of COc1cccc(Cn2c(=O)c(C)nc3cnc(Oc4cccc(Cl)c4)nc32)c1 and report it.
A. -2.38% (inactive)

Q. State its activity, negative = inhibition: CCCCn1cnc2c(c(CC#N)nn2-c2ccccc2)c1=N
A. -0.662% (inactive)

Q. Fill in reported activity, negative = inhibition for this entry: Cc1ncc(CSC(=N)N)n1Cc1ccccc1
A. 4.51% (inactive)

Q. Given the compound C=C1CC[C@H](O)C/C1=C/C=C1\CCC[C@]2(C)[C@H]1CC[C@H]2[C@@H](C)CCCC(C)C , write its reported activity, negative = inhibition.
A. -9.36% [at 17.2 µM] (inactive)

Q. Read the entry CN(C)[C@H]1C(=O)C(C(=O)NCN2CCCC2)=C(O)[C@]2(O)C(=O)C3=C(O)c4c(O)cccc4[C@](C)(O)[C@H]3C[C@H]12 and write its reported activity, negative = inhibition.
A. -11.7% (inactive)

Q. Specify reported activity, negative = inhibition for the compound shown: CC(=O)c1ccc(O)c(CN(C2CCCCC2)C2CCCCC2)c1O
A. -1.55% (inactive)
